- RUN_DESCRIPTION: Aqueous solubility of Bezuclastinib
- Assay type: physicochemical
- CONDITION: aqueous medium, aqueous buffer; pH = 7.0; read-out: Aqueous solubility
MEASURE: solubility (µg/mL)
Answers are plain numbers, in µg/mL.

Query: Give the measured solubility of `Cc1n[nH]c(C(=O)Nc2cnc3[nH]c(-c4ccccc4)cc3c2)c1C` .
Result: 0.31

* * *

- RUN_DESCRIPTION: Pka of Bezuclastinib (Table 1)
- Format: physicochemical
- CONDITION: Weak Base
- Text: Bezuclastinib has a high melting point and is insoluble in aqueous and most organic solvents. No suitable salt or co-crystal was found.
MEASURE: pKa
Answers are plain numbers.

Query: Give the measured pKa of Cc1n[nH]c(C(=O)Nc2cnc3[nH]c(-c4ccccc4)cc3c2)c1C [Bezuclastinib] .
Result: 2.86
